TARGET_SYSTEM: HIV-1 NefNL4-3 (Human immunodeficiency virus type 1 group M subtype B, UniProt P03406, A33V/T15A/T51N/V11I)
ASSAY: Surface plasmon resonance binding to recombinant full-length Nef (NL4-3)
MEASUREMENT_CONTEXT: Table 4; 2-step induced fit; T = 1/koff2
MEASURED_PARAMETER: T, minutes (residence time)

Given the compound `COCCc1nn(-c2nc3ccccc3[nH]2)c(O)c1CCc1ccc(F)cc1` , what is its reported T, minutes (residence time)?
8.87E + 00 minutes

Given the compound `CC(C)(C)OC(=O)N1CCC(c2nn(-c3nc4cccnc4[nH]3)c(O)c2CCc2ccc(F)cc2)CC1` , what is its reported T, minutes (residence time)?
6.92E + 00 minutes

Given the compound `CS(=O)(=O)c1ccc(-c2nn(-c3nc4cc(Cl)ccc4[nH]3)c(O)c2CCC2CCNCC2)cc1` , what is its reported T, minutes (residence time)?
3.33E + 03 minutes

Given the compound `Oc1c(CCC2CCOCC2)c(-c2ccc(F)cc2)nn1-c1nc2ccccc2[nH]1` , what is its reported T, minutes (residence time)?
9.98E + 00 minutes

Given the compound `CC(C)(O)C(=O)N1CCC(CCc2c(C3CC3)nn(-c3nc4cc(Cl)ccc4[nH]3)c2O)CC1` , what is its reported T, minutes (residence time)?
7.54E + 02 minutes

Given the compound `O=C1CCCN1CCc1c(-c2ccc(C(F)(F)F)cc2)nn(-c2nc3ccccc3[nH]2)c1O` , what is its reported T, minutes (residence time)?
5.46E + 00 minutes

Given the compound `CCOC(=O)N1CCC(c2nn(-c3nc4ccccc4[nH]3)c(O)c2CCC2CCOCC2)CC1` , what is its reported T, minutes (residence time)?
5.21E + 00 minutes

Given the compound `O=C(C1CC1)N1CCC(CCc2c(C3CC3)nn(-c3nc4cc(Cl)ccc4[nH]3)c2O)CC1` , what is its reported T, minutes (residence time)?
5.97E + 00 minutes

Given the compound `Oc1c(CC2CCOCC2)c(-c2ccc(F)c(F)c2)nn1-c1nc2ccccc2[nH]1` , what is its reported T, minutes (residence time)?
1.04E + 01 minutes

Given the compound `Oc1c(CCc2ccc(F)cc2)c(C2CC2)nn1-c1nc2cc(Cl)ccc2[nH]1` , what is its reported T, minutes (residence time)?
8.01E + 02 minutes

Given the compound `O=C(OCc1ccccc1)N1CCC(c2nn(-c3nc4cccnc4[nH]3)c(O)c2CCc2ccc(F)cc2)CC1` , what is its reported T, minutes (residence time)?
3.52E + 01 minutes

Given the compound Oc1c(CC2CCCCO2)c(-c2ccc(C(F)(F)F)cc2)nn1-c1nc2ccccc2[nH]1 (stereo not drawn) , what is its reported T, minutes (residence time)?
1.02E + 01 minutes

Given the compound `Oc1c(CCc2ccc(F)cc2)c(-c2ccc(C(F)(F)F)cc2)nn1-c1cc(C(F)(F)F)n[nH]1` , what is its reported T, minutes (residence time)?
5.59E + 00 minutes

Given the compound `Oc1c(CCc2ccc(F)cc2)c(-c2ccc(F)cc2)nn1-c1nc2cc(Cl)ccc2[nH]1` , what is its reported T, minutes (residence time)?
1.73E + 01 minutes

Given the compound `CS(=O)(=O)c1ccc(-c2nn(-c3cc(C(F)(F)F)n[nH]3)c(O)c2CCc2ccc(F)cc2)cc1` , what is its reported T, minutes (residence time)?
2.18E + 00 minutes
